Please provide measured mass density for the entries that follow.
details: 293.15 K; 10000 kPa; Liquid
Dear colleague, please return just the value in kg/m3, with no unit written.

Which mass density is listed for CCCCCCCn1cc[n+](C)c1.O=S(=O)([N-]S(=O)(=O)C(F)(F)F)C(F)(F)F ?
1359

Which mass density is listed for CCCCCCCCn1cc[n+](C)c1.O=S(=O)([N-]S(=O)(=O)C(F)(F)F)C(F)(F)F ?
1334

Which mass density is listed for CCn1cc[n+](C)c1.O=S(=O)([N-]S(=O)(=O)C(F)(F)F)C(F)(F)F ?
1533

Which mass density is listed for CCn1cc[n+](C)c1.F[B-](F)(F)F [1-ethyl-3-methylimidazolium tetrafluoroborate] ?
1309

Data origin: the NIST ThermoML archive (doi:10.1021/je700205n)
